system: HCT116; assay: cell viability (CellTiter-Glo) relative to plate median (fraction of plate median); higher = more viable cells; details: 5 µM; treatment time 24 h; reporter: TCF4/Wnt
Collected cell viability values appear next to each entry.

- compound: "Cc1cc(O)cc(=O)o1"
  recorded metric: "cell viability"
  result: 1.07
- compound: "CC(C(=O)O)c1ccc(C(=O)c2cccs2)cc1 (stereo unspecified)"
  recorded metric: "cell viability"
  result: 1.02
- compound: "C=C1[C@@H]([C@@]2(C)C=CC(=O)C(C)(C)[C@@H]2CC(=O)OC)CC[C@@]2(C)[C@H](c3ccoc3)OC(=O)[C@H]3O[C@]132"
  recorded metric: "cell viability"
  result: 1.01
- compound: "C[C@H]1CC[C@@H](C(C)(C)O)CC2=C1CC[C@@H]2C"
  recorded metric: "cell viability"
  result: 1.02
- compound: "COc1ccc2c(=O)c(CC(=O)O)coc2c1"
  recorded metric: "cell viability"
  result: 0.984

Attention now turns to another entry.
State the measured cell viability (HCT116) of Cc1cc(C2CCCCC2)n(O)c(=O)c1
0.454

====

Reported cell viability by item:
test system: DLD1; experiment: cell viability (CellTiter-Glo) relative to plate median (fraction of plate median); higher = more viable cells; details: 5 µM; treatment time 24 h; reporter: 7TFP
# answer = number (no unit)

- compound: "COC(=O)c1c(C)cc(OC)cc1O"
  recorded metric: "cell viability"
  quantitative result: 0.99

Report cell viability from DLD1 testing of N=C(N)NCCCCNC(=N)N
0.922

Specify the recorded cell viability for O=c1[nH]c(=O)n([C@H]2C[C@H](O)[C@@H](CO)O2)cc1F , system: DLD1.
0.609

Give the observed cell viability of CC(C)=CCc1c(O)cc2occ(-c3ccc4c(c3)OCO4)c(=O)c2c1O for DLD1.
1

Check DLD1 data and give cell viability for CS(=O)(=O)Nc1ccc([N+](=O)[O-])cc1Oc1ccccc1 .
1.02

With DLD1 as the test system, provide measured cell viability for this compound: O=C(Oc1ccccc1C(=O)O)c1ccccc1O
1.02

====

tested on: DLD1; experiment: cell viability (CellTiter-Glo) relative to plate median (fraction of plate median); higher = more viable cells; details: 10 µM; treatment time 24 h; reporter: TCF4/Wnt
t if cell viability is below 1. f if not; exact matches included in f.

- entry smiles: "Cc1ncc(-c2ccnc(Nc3ccc(S(C)(=O)=O)cc3)n2)n1C(C)C"
  category label: "f"

Here's an entry: O=C(Nc1ccc(OC(F)(F)F)cc1)c1sccc1NCc1ccnc2ccccc12 . Is its cell viability below 1?
t

Check if cell viability falls below 1 for Cc1ccc([N+](=O)[O-])cc1S(=O)(=O)N(C)/N=C/c1cnc2ccc(Br)cn12 .
f

====

system: SW480; test: TCF/Wnt firefly luciferase reporter signal relative to plate median (fraction of plate median); higher = higher Wnt reporter signal; conditions: 5 µM; treatment time 24 h; reporter: 7TFP
recorded metric: TCF/Wnt firefly luciferase reporter signal
Note: the reply should be a number with no unit written.

Here are 3 compounds together with their reported answers.
- compound: "C=C(CC[C@@H](C(=O)O)[C@H]1CC[C@@]2(C)C3=C(CC[C@]12C)[C@@]1(C)CC[C@H](O)C(C)(C)[C@@H]1CC3)C(C)C [Eburicoic acid]"
  test target: "SW480"
  quantitative result: 0.983
- compound: "COc1cc(N)c(Cl)cc1C(=O)NC1CCN(Cc2ccccc2)CC1"
  test target: "SW480"
  quantitative result: 0.998
- compound: "COc1c(-c2ccccc2)oc2c(ccc3occc32)c1=O"
  test target: "SW480"
  quantitative result: 1.05

Note down TCF/Wnt firefly luciferase reporter signal recorded for Cc1cccc(N(C)C(=S)Oc2ccc3ccccc3c2)c1
0.95

Assign TCF/Wnt firefly luciferase reporter signal to the following record: O=C1C=C2CC3(O)COc4c(ccc(O)c4O)C3=C2C=C1O (centres undefined)
1.05
